- Test target: UniProt Q9QUK6
- Sequence (whole entry): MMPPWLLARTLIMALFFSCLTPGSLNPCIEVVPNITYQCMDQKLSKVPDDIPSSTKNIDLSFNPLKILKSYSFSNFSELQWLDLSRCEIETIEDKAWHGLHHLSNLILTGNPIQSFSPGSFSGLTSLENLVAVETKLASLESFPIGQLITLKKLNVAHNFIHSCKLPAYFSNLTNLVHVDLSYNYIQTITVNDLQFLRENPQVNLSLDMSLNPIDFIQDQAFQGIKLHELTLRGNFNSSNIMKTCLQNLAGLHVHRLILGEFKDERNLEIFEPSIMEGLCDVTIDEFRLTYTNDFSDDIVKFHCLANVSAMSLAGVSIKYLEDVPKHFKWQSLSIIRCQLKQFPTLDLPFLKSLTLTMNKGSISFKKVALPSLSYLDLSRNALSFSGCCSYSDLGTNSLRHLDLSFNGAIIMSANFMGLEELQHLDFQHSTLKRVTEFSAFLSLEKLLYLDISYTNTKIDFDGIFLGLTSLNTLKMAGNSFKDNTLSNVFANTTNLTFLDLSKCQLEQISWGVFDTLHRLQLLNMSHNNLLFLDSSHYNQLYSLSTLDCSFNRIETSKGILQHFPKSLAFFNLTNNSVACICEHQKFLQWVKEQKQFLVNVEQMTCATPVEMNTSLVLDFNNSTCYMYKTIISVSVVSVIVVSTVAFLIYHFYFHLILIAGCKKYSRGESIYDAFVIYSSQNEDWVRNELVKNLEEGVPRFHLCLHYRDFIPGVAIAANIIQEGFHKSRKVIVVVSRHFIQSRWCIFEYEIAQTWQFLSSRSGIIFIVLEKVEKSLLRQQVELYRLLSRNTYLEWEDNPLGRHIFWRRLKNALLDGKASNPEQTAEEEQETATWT
- Method notes: Inhibition of TLR4 in BALB/c mouse BMDM assessed as downregulation of LPS-stimulated IL-6 level at 5 ug/ml preincubated for 18 hrs followed by LPS challenge measured after 24 hrs by ELISA relative to control
Active and inactive are the calls of the source. The rule behind the calls is not given here.
Outcome field: choose from active, inactive

Please review the entries below; each comes with its answer.
CN(C)CCCNC(=O)Cc1ccccc1 :: inactive
CN(C)CCN(C)CCS(=O)(=O)c1ccccc1 :: inactive
O=S(=O)(CCN1CCSCC1)c1ccccc1 :: active
O=S(=O)(Cc1ccc2ccccc2c1)NCCN1CCOCC1 :: active
C[N+](C)(C)CCOP(=O)(O)Cc1ccc(Br)cc1 :: inactive
Cc1ccc(CS(=O)(=O)CCCN2CCOCC2)cc1 :: inactive
O=[N+]([O-])c1ccc(CS(=O)(=O)NCCN2CCOCC2)cc1 :: inactive
CN(C)CCS(=O)(=O)NCc1ccccc1 :: inactive

What did this assay record as the result for CN(C)CCNS(=O)(=O)Cc1ccc(/C=C/c2ccccc2)cc1 ?
inactive

What did this assay record as the result for CN(C)CCS(=O)(=O)Cc1ccc(Br)cc1 ?
active

What did this assay record as the result for CN(C)CCCOP(=O)(O)Oc1ccc(NC(=O)OC(C)(C)C)cc1 ?
inactive

What did this assay record as the result for O=S(=O)(CCN1CCOCC1)c1ccccc1 ?
inactive

What did this assay record as the result for COc1ccc2c(CS(=O)(=O)NCCN3CCCC3)cc(=O)oc2c1 ?
inactive

What did this assay record as the result for CC[C@H](C)NCCS(=O)(=O)Cc1ccc(Br)cc1 ?
inactive

What did this assay record as the result for CN(C)CCS(=O)(=O)Nc1ccc(F)cc1 ?
inactive

What did this assay record as the result for CN(C)CCNCCS(=O)(=O)c1ccccc1 ?
inactive

----------
- Test target: TLR2/TLR6 (Mus musculus) (UniProt Q9QUN7+Q9EPW9)
- Method notes: Inhibition of TLR2/6 in BALB/c mouse BMDM assessed as downregulation of BLP-stimulated IL-12p40 level at 5 ug/ml preincubated for 18 hrs followed by BLP challenge measured after 24 hrs by ELISA relative to control
- Type: protein-complex assay
Calls of active or inactive are those of the source. How the calls were made is not given here.
Outcome field: choose from 1 (active), -1 (inactive)

Please review the entries below; each comes with its answer.
O=S(=O)(CCN1CCSCC1)c1ccccc1 :: -1
CN(C)CCS(=O)(=O)Nc1ccc(F)cc1 :: -1
CC[C@@H](C)NCCS(=O)(=O)c1ccccc1 :: -1
O=S(=O)(Cc1ccc(F)cc1)NCCN1CCOCC1 :: -1
O=S(=O)(Cc1ccccc1)NCCN1CCOCC1 :: -1

What did this assay record as the result for CN(C)CCS(=O)(=O)Cc1cccc(F)c1 ?
-1

What did this assay record as the result for COc1cccc(C(=O)NCCN2CCOCC2)c1 ?
1

What did this assay record as the result for O=S(=O)(CCNCCCO)c1ccccc1 ?
1

What did this assay record as the result for O=S(=O)(CCN1CCCC1)Cc1ccc(Br)cc1 ?
-1

What did this assay record as the result for CN(C)CCCNS(=O)(=O)Cc1ccc([N+](=O)[O-])cc1 ?
-1

What did this assay record as the result for Cc1ccc(CS(=O)(=O)NCCN(C)C)cc1 ?
-1

What did this assay record as the result for C[N+]1(CCS(=O)(=O)Cc2ccc(Br)cc2)CCCC1 ?
1

What did this assay record as the result for C[N+](C)(C)CCOP(=O)(O)Cc1ccc(Br)cc1 ?
1

----------
- Test target: Toll-like receptor 4 (Mus musculus) (UniProt Q9QUK6)
- Method notes: Inhibition of TLR4 in BALB/c mouse BMDM assessed as downregulation of LPS-stimulated IL-12p40 level at 5 ug/ml preincubated for 18 hrs followed by LPS challenge measured after 24 hrs by ELISA relative to control
The source made the active and inactive calls. No rule for the calls is given here.
Outcome field: choose from label 1 for active, label 0 for inactive

Please review the entries below; each comes with its answer.
CN(C)CCS(=O)(=O)Cc1ccc(Br)cc1 :: label 1
O=S(=O)(CCN1CCOCC1)NCc1ccccc1 :: label 0
O=S(=O)(Cc1ccccc1)NCCN1CCCC1 :: label 0

Please examine the following record next.
What did this assay record as the result for COc1ccc2c(CS(=O)(=O)NCCN3CCOCC3)cc(=O)oc2c1 ?
label 1

----------
- Test target: TLR2/TLR6 (Mus musculus) (UniProt Q9QUN7+Q9EPW9)
- Method notes: Inhibition of TLR2/6 in BALB/c mouse BMDM assessed as downregulation of BLP-stimulated IL-12p40 level at 5 ug/ml preincubated for 18 hrs followed by BLP challenge measured after 24 hrs by ELISA relative to control
- Type: protein-complex assay
Active and inactive are the calls of the source. The rule behind the calls is not given here.
Outcome field: choose from class 1 for active, class 0 for inactive

Cc1ccc(CNS(=O)(=O)CCN(C)CCN(C)C)cc1 :: class 0
CN(C)CCS(=O)(=O)NCc1ccc(Br)cc1 :: class 0

What did this assay record as the result for CN(C)CCN(C)CCS(=O)(=O)Cc1ccc(F)cc1 ?
class 1

What did this assay record as the result for Cc1ccc(CP(=O)(O)OCCCN(C)C)cc1 ?
class 0

What did this assay record as the result for O=[N+]([O-])c1ccc(CS(=O)(=O)NCCN2CCCC2)cc1 ?
class 0

----------
- Test target: TLR2/TLR6 (Mus musculus) (UniProt Q9QUN7+Q9EPW9)
- Method notes: Inhibition of TLR2/6 in BALB/c mouse BMDM assessed as downregulation of BLP-stimulated IL-6 level at 5 ug/ml preincubated for 18 hrs followed by BLP challenge measured after 24 hrs by ELISA relative to control
- Format: protein-complex assay
Calls of active or inactive are those of the source. No rule for the calls is given here.
Outcome field: choose from active, inactive

Please review the entries below; each comes with its answer.
O=S(=O)(Cc1ccccc1)NCCN1CCOCC1 :: inactive
O=S(=O)(CCN1CCCC1)Nc1ccccc1 :: inactive
O=S(=O)(CCN1CCCC1)NCc1ccccc1 :: inactive
O=[N+]([O-])c1ccc(CNS(=O)(=O)CCN2CCOCC2)cc1 :: inactive
Cc1ccc(CS(=O)(=O)CC[N+](C)(C)C)cc1 :: inactive
Cc1ccc(CNS(=O)(=O)CCN(C)C)cc1 :: inactive

What did this assay record as the result for CN(C)CCS(=O)(=O)NCc1ccc(F)cc1 ?
inactive

What did this assay record as the result for CN(C)CCNC(=O)Cc1ccccc1 ?
inactive

What did this assay record as the result for Cc1ccc(CNS(=O)(=O)CCN2CCOCC2)cc1 ?
inactive

What did this assay record as the result for O=[N+]([O-])c1ccc(CS(=O)(=O)NCCN2CCCC2)cc1 ?
inactive

What did this assay record as the result for O=S(=O)(Cc1ccccc1)NCCN1CCCC1 ?
inactive

What did this assay record as the result for CN(C)CCS(=O)(=O)Nc1ccccc1 ?
inactive

What did this assay record as the result for O=S(=O)(CCN1CCOCC1)c1ccccc1 ?
inactive

What did this assay record as the result for C[N+](C)(C)CCOP(=O)(O)Cc1ccc(Br)cc1 ?
inactive

What did this assay record as the result for COc1ccc2c(CS(=O)(=O)NCCN(C)C)cc(=O)oc2c1 ?
inactive

What did this assay record as the result for Cc1ccc(CP(=O)(O)OCCCN(C)C)cc1 ?
inactive

What did this assay record as the result for CN(C)CCS(=O)(=O)Cc1ccc(F)cc1 ?
active

What did this assay record as the result for Cc1ccc(CNS(=O)(=O)CCN(C)CCN(C)C)cc1 ?
active
